- Test system: Plasmodium falciparum
- assay: Inhibition of Plasmodium falciparum DHODH assessed as residual activity using DCIP as substrate at 50 uM relative to control
Please respond with reported Activity for every item in the list.
Answers are plain numbers, in %.

Solved cases below.
[[record]]
compound = "CC1(C)CCc2cc(CNCCCc3ccccc3)c(O)cc2O1"
endpointunit = "%"
testvalue = 90

[[record]]
compound = "C[C@H](NCc1ccccc1)c1cc2c(cc1O)OC(C)(C)C=C2"
endpointunit = "%"
testvalue = 96

[[record]]
compound = "CC(NCCCc1ccccc1)c1cc2c(cc1O)OC(C)(C)C=C2 (racemic)"
endpointunit = "%"
testvalue = 98


In the following, a different compound is considered.
Request: Find the measured Activity: item C[C@@H](NCc1ccccc1)c1cc2c(cc1O)OC(C)(C)C=C2 , target or system Plasmodium falciparum.
Response: 91

###

- Test system: Plasmodium falciparum
- assay: Inhibition of Plasmodium falciparum DHODH using DCIP as substrate at 50 uM relative to control
propertyName: inhibition (%)
Numbers only, in %.

Worked examples, 3 compounds total:
[[record]]
compound = "C[C@@H](NCc1ccccc1)c1cc2c(cc1O)OC(C)(C)C=C2"
testvalue = 1

[[record]]
compound = "C[C@H](NCc1ccccc1)c1cc2c(cc1O)OC(C)(C)C=C2"
testvalue = 1

[[record]]
compound = "CC(NCCCc1ccccc1)c1cc2c(cc1O)OC(C)(C)C=C2 (racemic)"
testvalue = 4


Alright, here's another compound for you.
Request: Given CC1(C)CCc2cc(CNCCCc3ccccc3)c(O)cc2O1 , state its recorded inhibition.
Response: 1

###

- System: Plasmodium falciparum
- assay: Inhibition of Plasmodium falciparum DHODH assessed as residual activity using DCIP as substrate at 10 uM relative to control
Assign Activity to each entry below.
Answer format reminder: number followed by unit.

[[record]]
molecule = "CC1(C)CCc2cc(CNCCCc3ccccc3)c(O)cc2O1"
propertyname = "Activity"
testvalue = "106%"

[[record]]
molecule = "CC(NCCCc1ccccc1)c1cc2c(cc1O)OC(C)(C)C=C2 (racemic)"
propertyname = "Activity"
testvalue = "116%"

[[record]]
molecule = "C[C@H](NCc1ccccc1)c1cc2c(cc1O)OC(C)(C)C=C2"
propertyname = "Activity"
testvalue = "116%"


Here is another molecule to look at.
Request: Looking for the measured Activity of C[C@@H](NCc1ccccc1)c1cc2c(cc1O)OC(C)(C)C=C2 , can you help?
Response: 110%

###

- System: Plasmodium falciparum
- assay: Inhibition of Plasmodium falciparum DHODH using DCIP as substrate at 10 uM relative to control
Task for the reader: assign each of the following molecules its reported inhibition.
One number for each entry, in %.

For orientation, consider the following solved cases.
[[record]]
molecule = "CC(NCCCc1ccccc1)c1cc2c(cc1O)OC(C)(C)C=C2 (racemic)"
assaysystem = "Plasmodium falciparum"
propertyname = "inhibition"
testvalue = 3

[[record]]
molecule = "C[C@H](NCc1ccccc1)c1cc2c(cc1O)OC(C)(C)C=C2"
assaysystem = "Plasmodium falciparum"
propertyname = "inhibition"
testvalue = 5

[[record]]
molecule = "C[C@@H](NCc1ccccc1)c1cc2c(cc1O)OC(C)(C)C=C2"
assaysystem = "Plasmodium falciparum"
propertyname = "inhibition"
testvalue = 3


Shift focus to the following entry.
Request: What inhibition value was documented for this molecule, CC1(C)CCc2cc(CNCCCc3ccccc3)c(O)cc2O1 ?
Response: 3

###

I'd be grateful if you could share measured log10(IC50 at 70 h) for these entries.
- assay: Cytotoxicity against rat L6 cells assessed as cell growth inhibition incubated for 70 hrs by Alamar Blue staining based […]
- Type: toxicity
// units: µM (pre-log); metric: IC50 at 70 h; scale: log10

List reported log10(IC50 at 70 h) for each of these molecules:
1. CC1(C)C=Cc2cc(CNCCc3ccccc3)c(O)cc2O1
2. CC1(C)CCc2cc(CNCCCCc3ccccc3)c3c(c2O1)CCC(C)(C)O3
3. CC1(C)CCc2cc(CNCc3ccccc3)c(O)cc2O1
4. CC1(C)CCc2cc(CNCCc3ccccc3)c(O)cc2O1
5. CC1(C)CCc2cc(CNCCc3ccccc3)c3c(c2O1)CCC(C)(C)O3

Response:
1: 1.66; 2: 0.51; 3: 1.34; 4: 1.63; 5: 0.54

Batch of 7 molecules: report log10(IC50 at 70 h) for each.
1. CC1(C)CCc2cc(CNCCCCc3ccccc3)c(O)cc2O1
2. CC1(C)CCc2cc(C(O)CNCc3ccccc3)c(O)cc2O1 (centres undefined)
3. CC1(C)CCc2cc(CNCc3ccccc3)c3c(c2O1)CCC(C)(C)O3
4. CC1(C)CCc2c(ccc(CNCCCc3ccccc3)c2O)O1
5. CC1(C)CCc2cc(CCCNCc3ccccc3)c(O)cc2O1
6. CC1(C)C=Cc2cc(CNCCCCc3ccccc3)c(O)cc2O1
7. CC1(C)CCc2c(ccc(CNCCc3ccccc3)c2O)O1

Response:
1. 1.18
2. 1.66
3. 0.75
4. 1.43
5. 1.38
6. 1.28
7. 1.56

Quick request: log10(IC50 at 70 h) for each listed item, please.
1. CC1(C)CCc2c(ccc(CNCc3ccccc3)c2O)O1
2. CC1(C)CCc2cc(C(O)CNCCCc3ccccc3)c(O)cc2O1 (centres undefined)
3. CC1(C)CCc2c(ccc(CNCCCCc3ccccc3)c2O)O1
4. CC1(C)CCc2cc(CNCCCc3ccccc3)c3c(c2O1)CCC(C)(C)O3
5. CC1(C)C=Cc2cc(CNCc3ccccc3)c(O)cc2O1
6. CC1(C)C=Cc2cc(CNCCCc3ccccc3)c(O)cc2O1

Response:
[1.78, 1.40, 1.18, 0.41, 1.76, 1.45]

Request: Query (molecule): CC1(C)CCc2cc(CNCCCc3ccccc3)c(O)cc2O1 ; field requested: log10(IC50 at 70 h)
Response: 0.81

###

- assay: Selectivity index, ratio of IC50 for rat L6 cells to IC50 for Trypanosoma cruzi Tulahuen C4 intracellular amastigote infected in rat L6 cells
- Type: toxicity, cell-based
- conditionLabel: read-out: Ratio IC50
Note to self: selectivity ratio under 0.9 means fulfilled, ties and anything higher get not fulfilled.

Some solved entries appear below for comparison.
[[record]]
compound = "CC1(C)CCc2c(ccc(CNCCCCc3ccccc3)c2O)O1"
assignedlabel = "fulfilled"

[[record]]
compound = "CC1(C)CCc2cc(CNCc3ccccc3)c3c(c2O1)CCC(C)(C)O3"
assignedlabel = "fulfilled"

[[record]]
compound = "CC1(C)CCc2cc(CCCNCc3ccccc3)c(O)cc2O1"
assignedlabel = "not fulfilled"

[[record]]
compound = "CC1(C)C=Cc2cc(CNCCc3ccccc3)c(O)cc2O1"
assignedlabel = "not fulfilled"


Request: Check if selectivity ratio falls below 0.9 for CC1(C)CCc2c(ccc(CNCCc3ccccc3)c2O)O1 .
Response: fulfilled

Request: Strictly below 0.9: is that where selectivity ratio of CC1(C)CCc2cc(CNCCCCc3ccccc3)c3c(c2O1)CCC(C)(C)O3 sits?
Response: fulfilled

Request: Lab log: compare recorded selectivity ratio with 0.9; is it strictly lower for CC1(C)C=Cc2cc(CNCCCCc3ccccc3)c(O)cc2O1 ?
Response: not fulfilled

Request: Problem: For the compound CC1(C)C=Cc2cc(CNCCCc3ccccc3)c(O)cc2O1 , is selectivity ratio under 0.9?
Response: not fulfilled

Request: Dear colleague, could you confirm whether selectivity ratio of CC1(C)CCc2cc(C(O)CNCc3ccccc3)c(O)cc2O1 (configuration not stated) falls below 0.9? Thanks.
Response: not fulfilled

Request: Hello, is selectivity ratio of the following compound strictly smaller than 0.9? CC1(C)CCc2cc(CNCCCc3ccccc3)c3c(c2O1)CCC(C)(C)O3
Response: fulfilled

Request: Just wondering, is selectivity ratio of CC1(C)C=Cc2cc(CNCc3ccccc3)c(O)cc2O1 below 0.9?
Response: fulfilled

###

Can you tell me selectivity ratio for the items I'm about to list?
- assay: Selectivity index, ratio of IC50 for rat L6 cells to IC50 for Trypanosoma brucei rhodesiense STIB 900 bloodstream trypomastigote
- Format: toxicity
- conditionLabel: read-out: Ratio IC50
Give bare numbers.

Use the examples below as a reference point.
[[record]]
molecule = "CC1(C)CCc2cc(CNCCCc3ccccc3)c3c(c2O1)CCC(C)(C)O3"
testvalue = 3

[[record]]
molecule = "CC1(C)C=Cc2cc(CNCCc3ccccc3)c(O)cc2O1"
testvalue = 69

[[record]]
molecule = "CC1(C)CCc2cc(CNCc3ccccc3)c3c(c2O1)CCC(C)(C)O3"
testvalue = 4

[[record]]
molecule = "CC1(C)CCc2cc(C(O)CNCCCc3ccccc3)c(O)cc2O1 (configuration not stated)"
testvalue = 5

[[record]]
molecule = "CC1(C)CCc2c(ccc(CNCCCc3ccccc3)c2O)O1"
testvalue = 8

[[record]]
molecule = "CC1(C)CCc2cc(CNCCc3ccccc3)c3c(c2O1)CCC(C)(C)O3"
testvalue = 5


// batch mode: one selectivity ratio value per listed entry
1. CC1(C)CCc2c(ccc(CNCc3ccccc3)c2O)O1
2. CC1(C)CCc2cc(CNCCCCc3ccccc3)c3c(c2O1)CCC(C)(C)O3
3. CC1(C)C=Cc2cc(CNCc3ccccc3)c(O)cc2O1
4. CC1(C)CCc2c(ccc(CNCCCCc3ccccc3)c2O)O1
5. CC1(C)CCc2cc(CNCCCc3ccccc3)c(O)cc2O1
6. CC1(C)CCc2cc(C(O)CNCc3ccccc3)c(O)cc2O1 (configuration not stated)
7. CC1(C)C=Cc2cc(CNCCCCc3ccccc3)c(O)cc2O1

Response:
1: 3; 2: 6; 3: 63; 4: 4; 5: 14; 6: 7; 7: 17

Provide reported selectivity ratio for each item, in the same order as listed.
1. CC1(C)CCc2c(ccc(CNCCc3ccccc3)c2O)O1
2. CC1(C)CCc2cc(CCCNCc3ccccc3)c(O)cc2O1
3. CC1(C)CCc2cc(CNCCCCc3ccccc3)c(O)cc2O1
4. CC1(C)C=Cc2cc(CNCCCc3ccccc3)c(O)cc2O1

Response:
6
5
33
28

Origin of measurements: ChEMBL document CHEMBL5096178
